Biological target: LRRK2 WT (Homo sapiens, UniProt Q5S007)
Sequence (Q5S007 970-2527): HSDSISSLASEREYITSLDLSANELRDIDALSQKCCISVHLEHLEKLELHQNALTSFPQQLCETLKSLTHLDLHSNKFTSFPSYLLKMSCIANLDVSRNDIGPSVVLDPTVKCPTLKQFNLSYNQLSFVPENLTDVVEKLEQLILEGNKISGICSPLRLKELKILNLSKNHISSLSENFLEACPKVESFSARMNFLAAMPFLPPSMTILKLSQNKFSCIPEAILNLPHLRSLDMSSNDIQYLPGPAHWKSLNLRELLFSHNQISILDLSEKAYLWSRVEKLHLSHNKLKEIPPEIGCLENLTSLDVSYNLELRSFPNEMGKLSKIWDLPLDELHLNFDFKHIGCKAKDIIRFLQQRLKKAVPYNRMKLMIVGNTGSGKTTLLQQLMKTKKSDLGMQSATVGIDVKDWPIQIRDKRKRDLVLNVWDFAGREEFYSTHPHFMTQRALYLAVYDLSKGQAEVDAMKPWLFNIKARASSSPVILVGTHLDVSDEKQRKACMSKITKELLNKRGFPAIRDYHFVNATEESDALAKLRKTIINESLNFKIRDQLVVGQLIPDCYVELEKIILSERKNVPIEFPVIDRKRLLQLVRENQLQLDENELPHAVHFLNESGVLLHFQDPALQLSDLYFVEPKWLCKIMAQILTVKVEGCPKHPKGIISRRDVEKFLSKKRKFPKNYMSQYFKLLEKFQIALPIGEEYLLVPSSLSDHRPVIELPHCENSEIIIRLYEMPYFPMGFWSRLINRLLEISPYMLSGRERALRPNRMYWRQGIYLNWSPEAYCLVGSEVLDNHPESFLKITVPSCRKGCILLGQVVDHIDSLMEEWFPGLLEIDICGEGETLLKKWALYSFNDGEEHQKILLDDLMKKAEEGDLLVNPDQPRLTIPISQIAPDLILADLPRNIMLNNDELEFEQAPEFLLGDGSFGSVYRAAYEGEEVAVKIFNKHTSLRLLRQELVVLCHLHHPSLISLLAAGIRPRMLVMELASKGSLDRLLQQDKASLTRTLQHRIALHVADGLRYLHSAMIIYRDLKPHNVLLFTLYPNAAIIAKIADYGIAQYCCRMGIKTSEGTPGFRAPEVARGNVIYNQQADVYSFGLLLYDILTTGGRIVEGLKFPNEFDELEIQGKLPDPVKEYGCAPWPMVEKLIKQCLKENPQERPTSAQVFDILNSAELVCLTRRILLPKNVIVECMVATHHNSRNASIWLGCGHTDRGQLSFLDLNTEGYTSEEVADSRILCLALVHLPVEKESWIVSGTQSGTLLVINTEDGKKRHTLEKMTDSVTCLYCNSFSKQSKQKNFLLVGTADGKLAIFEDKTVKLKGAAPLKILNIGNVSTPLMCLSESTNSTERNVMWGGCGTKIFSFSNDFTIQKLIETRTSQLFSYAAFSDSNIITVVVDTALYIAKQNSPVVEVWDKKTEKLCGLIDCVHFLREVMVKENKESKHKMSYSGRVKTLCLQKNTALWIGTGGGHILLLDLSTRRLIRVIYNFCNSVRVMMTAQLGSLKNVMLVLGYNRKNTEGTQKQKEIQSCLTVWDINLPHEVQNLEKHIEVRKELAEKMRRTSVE
pIC50: −log10 of the molar value.
# if value of pIC50 reaches 7, tag Criterion met; if it stays below, tag Criterion not met

Use the examples below as a reference point.
compound: Cc1cncc(-c2cc(Nc3ccn(C)n3)nc3[nH]cc(C#N)c23)c1 [Example 22]
group: Criterion met
//
compound: Cc1cccc(-c2cc(Nc3ccn(C)n3)nc3[nH]cc(C#N)c23)c1 [Example 14]
group: Criterion met
//
compound: N#Cc1c[nH]c2nc(Nc3ccccn3)cc(-c3ccccc3)c12 [Example 17]
group: Criterion not met
//
compound: COc1cccc(-c2ccnc3[nH]cc(C#N)c23)c1 [Example 1]
group: Criterion not met
//
compound: Cc1cccc(-c2cc(Nc3nn(C)cc3C)nc3[nH]cc(C#N)c23)n1 [Example 20]
group: Criterion met
//
compound: Cc1cc(-c2cc(Nc3nn(C)cc3C)nc3[nH]cc(C#N)c23)ccn1 [Example 23]
group: Criterion not met
//
compound: Cc1cccc(-c2ccnc3[nH]cc(C#N)c23)c1 [Example 2]
group: Criterion not met
//
compound: COc1cc(-c2ccnc3[nH]cc(C#N)c23)ccc1CN1CCOCC1 [Example 10]
group: Criterion not met

Consider the additional compound presented here.
Query :: Could you tell me if the measured pIC50 of CCc1cccc(-c2ccnc3[nH]cc(C#N)c23)c1 [Example 3] reaches 7 or more?
Result :: Criterion not met
